biological target: Cyclin-dependent kinase 5/CDK5 activator 1 (Homo sapiens, UniProt Q00535); assay: Inhibition of CDK5/p35 (unknown origin); assay type: protein-complex assay
Sequence (Q00535 whole entry): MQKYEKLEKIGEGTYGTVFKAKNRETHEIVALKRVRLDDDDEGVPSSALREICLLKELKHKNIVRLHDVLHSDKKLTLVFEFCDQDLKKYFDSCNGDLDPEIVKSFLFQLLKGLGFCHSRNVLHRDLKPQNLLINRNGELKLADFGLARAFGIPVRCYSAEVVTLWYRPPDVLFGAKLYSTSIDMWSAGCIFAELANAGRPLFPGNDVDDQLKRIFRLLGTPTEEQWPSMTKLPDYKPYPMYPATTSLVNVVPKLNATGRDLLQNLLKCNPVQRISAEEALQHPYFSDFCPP
Sequence (Q15078 whole entry, further chain): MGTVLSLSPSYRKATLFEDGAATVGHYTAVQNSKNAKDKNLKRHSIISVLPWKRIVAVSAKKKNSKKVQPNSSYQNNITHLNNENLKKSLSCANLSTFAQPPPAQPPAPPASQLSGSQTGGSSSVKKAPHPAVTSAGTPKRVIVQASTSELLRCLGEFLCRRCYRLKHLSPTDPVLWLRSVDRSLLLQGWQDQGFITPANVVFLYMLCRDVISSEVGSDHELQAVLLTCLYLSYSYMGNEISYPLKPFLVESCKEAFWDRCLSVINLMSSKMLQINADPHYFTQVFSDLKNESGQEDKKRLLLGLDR
value.kind: IC50 (nM)
I only need the number, in nM, no unit after it.

Retrieve IC50 measured for "Nc1nc(N[C@H]2C[C@@H]3CC[C@H]2C3)sc1C(=O)c1ccccc1[N+](=O)[O-]" and print it.
159

---

molecular target: Cyclin-dependent kinase 4/cyclin D1 (Homo sapiens, UniProt P11802); experiment: Inhibition of CDK4/cyclinD (unknown origin)
Sequence (P11802 whole entry): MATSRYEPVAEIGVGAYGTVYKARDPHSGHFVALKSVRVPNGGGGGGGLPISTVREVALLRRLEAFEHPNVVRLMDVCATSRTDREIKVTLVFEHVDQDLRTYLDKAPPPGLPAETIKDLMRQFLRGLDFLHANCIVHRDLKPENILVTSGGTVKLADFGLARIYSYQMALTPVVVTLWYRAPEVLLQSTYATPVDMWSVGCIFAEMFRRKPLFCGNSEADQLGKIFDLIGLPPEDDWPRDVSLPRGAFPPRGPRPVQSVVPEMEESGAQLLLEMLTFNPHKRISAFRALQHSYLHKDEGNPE
Sequence (P24385 whole entry, further chain): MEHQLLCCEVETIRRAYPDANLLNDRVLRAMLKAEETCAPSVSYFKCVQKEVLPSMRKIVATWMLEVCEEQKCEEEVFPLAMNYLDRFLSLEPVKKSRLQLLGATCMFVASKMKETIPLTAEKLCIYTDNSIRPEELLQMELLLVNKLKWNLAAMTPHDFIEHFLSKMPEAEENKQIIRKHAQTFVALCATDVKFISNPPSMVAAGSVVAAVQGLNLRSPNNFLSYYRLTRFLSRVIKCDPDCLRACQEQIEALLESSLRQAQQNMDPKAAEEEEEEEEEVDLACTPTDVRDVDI
value.kind: IC50 (nM)
# unit: nM | format: bare number

Output reported IC50 of the molecule "Nc1nc(N[C@H]2C[C@@H]3CC[C@H]2C3)sc1C(=O)c1ccccc1[N+](=O)[O-]" on Cyclin-dependent kinase 4/cyclin D1 (Homo sapiens, UniProt P11802).
112

---

assay: Inhibition of CDK8/cyclinD3 (unknown origin); design: species or system Homo sapiens
value.kind: pIC50
Kindly note that pIC50 refers to -log10 of the concentration in mol/L and answer with the value alone.

Item "Nc1nc(N[C@H]2C[C@@H]3CC[C@H]2C3)sc1C(=O)c1ccccc1[N+](=O)[O-]" : provide pIC50
6.15

---

biological target: CDK2/Cyclin A2 (Homo sapiens, UniProt P24941); assay: Inhibition of CDK2/cyclinA (unknown origin)
value.kind: IC50 (nM)
// return numeric value only (unit: nM, not printed)

Tell me IC50 reported for "Nc1nc(N[C@H]2C[C@@H]3CC[C@H]2C3)sc1C(=O)c1ccccc1[N+](=O)[O-]"
233

---

target: Cyclin-dependent kinase 1/cyclin B1 (Homo sapiens); test: Inhibition of CDK1/cyclinB (unknown origin)
Sequence (P06493 whole entry): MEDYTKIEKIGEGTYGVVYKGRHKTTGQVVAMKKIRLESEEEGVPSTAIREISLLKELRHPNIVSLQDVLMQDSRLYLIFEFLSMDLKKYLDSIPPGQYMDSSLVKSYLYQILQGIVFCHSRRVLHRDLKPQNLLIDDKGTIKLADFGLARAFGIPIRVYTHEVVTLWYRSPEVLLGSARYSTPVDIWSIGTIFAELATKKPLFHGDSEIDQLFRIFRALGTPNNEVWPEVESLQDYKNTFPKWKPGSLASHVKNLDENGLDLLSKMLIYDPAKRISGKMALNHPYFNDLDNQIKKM
Sequence (P14635 whole entry, further chain): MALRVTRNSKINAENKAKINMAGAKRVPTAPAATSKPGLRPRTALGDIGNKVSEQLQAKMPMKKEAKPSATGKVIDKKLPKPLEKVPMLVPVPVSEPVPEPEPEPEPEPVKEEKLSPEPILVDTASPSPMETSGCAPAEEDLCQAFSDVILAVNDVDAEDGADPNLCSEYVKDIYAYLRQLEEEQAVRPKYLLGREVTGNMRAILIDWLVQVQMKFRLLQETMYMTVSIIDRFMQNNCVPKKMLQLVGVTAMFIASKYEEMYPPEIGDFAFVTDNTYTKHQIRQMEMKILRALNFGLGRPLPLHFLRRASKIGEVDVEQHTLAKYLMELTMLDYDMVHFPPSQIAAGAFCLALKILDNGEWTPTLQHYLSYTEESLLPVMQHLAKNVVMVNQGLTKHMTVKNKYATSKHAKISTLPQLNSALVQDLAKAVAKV
value.kind: IC50 (nM)
Express the result in nM but write the number alone.

Provide measured IC50 value, entry: "Nc1nc(N[C@H]2C[C@@H]3CC[C@H]2C3)sc1C(=O)c1ccccc1[N+](=O)[O-]"
138

---

molecular target: CDK3/Cyclin E (Homo sapiens); assay: Inhibition of CDK3/cyclinE (unknown origin)
Sequence (P24864 whole entry): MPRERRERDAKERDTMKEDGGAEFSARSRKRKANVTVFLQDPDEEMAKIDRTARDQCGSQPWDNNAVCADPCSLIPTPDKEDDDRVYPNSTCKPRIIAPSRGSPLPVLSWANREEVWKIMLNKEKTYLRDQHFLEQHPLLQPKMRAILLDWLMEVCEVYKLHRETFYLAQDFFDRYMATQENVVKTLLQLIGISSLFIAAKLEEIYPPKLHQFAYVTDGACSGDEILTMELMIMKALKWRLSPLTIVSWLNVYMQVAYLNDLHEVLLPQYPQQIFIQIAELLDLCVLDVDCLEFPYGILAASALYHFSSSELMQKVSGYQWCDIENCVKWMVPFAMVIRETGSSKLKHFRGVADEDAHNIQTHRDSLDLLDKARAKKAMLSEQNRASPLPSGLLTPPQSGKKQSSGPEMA
Sequence (Q00526 whole entry): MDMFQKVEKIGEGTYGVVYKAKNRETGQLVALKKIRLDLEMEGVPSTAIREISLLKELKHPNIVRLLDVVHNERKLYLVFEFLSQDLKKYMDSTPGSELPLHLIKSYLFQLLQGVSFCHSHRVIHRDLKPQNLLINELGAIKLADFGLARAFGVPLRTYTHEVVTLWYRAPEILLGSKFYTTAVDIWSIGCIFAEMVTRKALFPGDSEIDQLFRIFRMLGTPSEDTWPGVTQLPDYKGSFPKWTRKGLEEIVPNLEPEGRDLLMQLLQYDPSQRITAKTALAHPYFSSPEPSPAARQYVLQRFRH
value.kind: IC50 (nM)
Express the result in nM but write the number alone.

Supply reported IC50 belonging to this molecule: "Nc1nc(N[C@H]2C[C@@H]3CC[C@H]2C3)sc1C(=O)c1ccccc1[N+](=O)[O-]"
399

---

molecular target: Cyclin-dependent kinase 5/CDK5 activator 1 (Homo sapiens); assay: Inhibition of CDK5/p25 (unknown origin); type: protein-complex assay
value.kind: IC50 (µM)
Express it in µM; write the number only.

State its IC50 for this compound: "Nc1nc(N[C@H]2C[C@@H]3CC[C@H]2C3)sc1C(=O)c1ccccc1[N+](=O)[O-]"
0.186
